Values were extracted from ChEMBL document CHEMBL1143118.

System: Aortic ring
procedure.summary: Relaxation of phenyphrine-induced constriction in rat aortic rings
Assay type: functional, tissue-based
run.conditions: Aorta
readout.name: EC50
Reply with the number, then its unit.

The compound "CC(=O)C1=Nc2c(nc(N)[nH]c2=O)NC1(C)C" showed EC50 equal to 10 nM

====

system.name: Nitric oxide synthase 1 (Homo sapiens, UniProt P29475)
Sequence (P29475 whole entry): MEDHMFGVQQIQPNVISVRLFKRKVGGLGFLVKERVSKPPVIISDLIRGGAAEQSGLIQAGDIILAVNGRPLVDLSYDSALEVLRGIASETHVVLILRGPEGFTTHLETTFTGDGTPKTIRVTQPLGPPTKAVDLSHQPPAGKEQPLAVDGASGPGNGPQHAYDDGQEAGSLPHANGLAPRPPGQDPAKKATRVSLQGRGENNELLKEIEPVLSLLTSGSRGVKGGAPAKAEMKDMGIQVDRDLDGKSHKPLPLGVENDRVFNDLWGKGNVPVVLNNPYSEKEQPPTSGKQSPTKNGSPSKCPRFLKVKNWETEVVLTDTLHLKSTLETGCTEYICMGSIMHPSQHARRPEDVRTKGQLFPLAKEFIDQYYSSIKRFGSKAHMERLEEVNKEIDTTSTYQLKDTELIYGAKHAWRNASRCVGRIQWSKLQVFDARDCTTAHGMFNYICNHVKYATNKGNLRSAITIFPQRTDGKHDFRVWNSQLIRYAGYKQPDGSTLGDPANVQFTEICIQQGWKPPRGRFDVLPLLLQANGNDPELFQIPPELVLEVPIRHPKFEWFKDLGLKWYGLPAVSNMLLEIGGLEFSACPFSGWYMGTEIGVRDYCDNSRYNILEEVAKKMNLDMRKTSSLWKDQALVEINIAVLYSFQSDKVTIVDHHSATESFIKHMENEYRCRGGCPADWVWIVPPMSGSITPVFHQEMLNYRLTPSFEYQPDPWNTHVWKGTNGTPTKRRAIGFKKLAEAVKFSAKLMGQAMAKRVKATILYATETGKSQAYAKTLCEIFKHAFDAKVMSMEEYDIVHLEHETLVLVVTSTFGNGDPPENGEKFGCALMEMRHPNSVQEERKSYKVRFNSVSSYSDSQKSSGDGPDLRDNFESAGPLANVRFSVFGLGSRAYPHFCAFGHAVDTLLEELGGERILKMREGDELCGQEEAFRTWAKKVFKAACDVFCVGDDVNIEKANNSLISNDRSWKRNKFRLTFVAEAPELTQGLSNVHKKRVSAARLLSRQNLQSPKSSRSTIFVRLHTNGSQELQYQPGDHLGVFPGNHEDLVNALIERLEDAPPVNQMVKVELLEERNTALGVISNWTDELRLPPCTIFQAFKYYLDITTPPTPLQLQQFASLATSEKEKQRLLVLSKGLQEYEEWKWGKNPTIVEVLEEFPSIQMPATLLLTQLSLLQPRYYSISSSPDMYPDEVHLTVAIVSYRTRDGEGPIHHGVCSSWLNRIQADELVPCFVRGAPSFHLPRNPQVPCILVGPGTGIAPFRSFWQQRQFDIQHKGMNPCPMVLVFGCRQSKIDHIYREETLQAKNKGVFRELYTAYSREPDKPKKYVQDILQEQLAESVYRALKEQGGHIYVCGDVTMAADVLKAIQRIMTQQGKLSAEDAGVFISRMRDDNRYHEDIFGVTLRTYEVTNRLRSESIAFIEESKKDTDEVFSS
readout.name: Kd (µM)
Give bare numbers, in µM.

Field Kd (system: Nitric oxide synthase 1 (Homo sapiens, UniProt P29475)) for entry CC(=O)C1Nc2c(nc(N)[nH]c2=O)NC1(C)C (stereo unspecified) = 151
